- run_description: Bioavailability in C57BL/6 mouse at 40 mg/kg, sc
- Format: ADME, organism-based
- reported_conditions: in vivo
assay_endpoint: bioavailability (%)
The reply should be a number in %, with the unit left off.

For CSc1ncccc1C(=O)Nc1nc(-c2cccc(Nc3ccc(C#N)cc3)c2)cs1 the molecule record lists bioavailability as 5

====

- run_description: Half life in C57BL/6 mouse at 40 mg/kg, sc
- Format: ADME, organism-based
- reported_conditions: in vivo
assay_endpoint: half-life (h)
Your answer should be a plain number; it is taken to be in h.

Kindly note the recorded half-life for CSc1ncccc1C(=O)Nc1nc(-c2cccc(Nc3ccc(C#N)cc3)c2)cs1 , which is 5.7
